Experiment: qHTS assay to test for compound auto fluorescence at 535 nm (green) in HEK293 cell free culture (AID 720682)
Conditions: cell-free medium, green autofluorescence 485/535 nm; series mostly up to 91.3 µM
Calls of active or inactive are those of the source. Calls follow the shape of the dose curve; as a rule, active = well fitted curve in the direction sought with a large enough effect in the repeat runs; inconclusive = weak or mixed curves; inactive = flat fitted curve, though single readings scatter.
value.type: outcome

Use these answered entries as a reference point.
> print(dat)
                            chemical.smiles  value.type  assay.result
1                                    IC(I)I     outcome      inactive
2  C=C[C@H]1CN2CC[C@H]1C[C@H]2[C@H](O)c1ccnc2ccc(OC)cc12     outcome      inactive
3                   [O-]/[N+](=N\O)c1ccccc1     outcome      inactive
4                CN(C)/N=N/c1nc[nH]c1C(N)=O     outcome      inactive
5                            O=Cc1ccccc1C=O     outcome      inactive
6                            C[N+](C)(C)CCO     outcome      inactive
7                                 CN1CCOCC1     outcome      inactive
8                Cc1ccc([N+](=O)[O-])c(C)c1     outcome      inactive

Any idea what its outcome is? The compound is `OCCNCCO`
inactive

# outcome lookup, item `O=C(O)CCCCCCCCCCCC(=O)O`
inactive

Would you mind telling me what outcome value was observed for `c1ccc2c(c1)[nH]c1ccccc12` ?
inactive

Find the recorded outcome belonging to `CC1(C)NC(=O)N(c2ccc([N+](=O)[O-])c(C(F)(F)F)c2)C1=O` and report it.
inactive

----------
Target: Cytochrome P450 3A4 (Homo sapiens) (UniProt P08684)
Sequence (P08684 whole entry, looked up): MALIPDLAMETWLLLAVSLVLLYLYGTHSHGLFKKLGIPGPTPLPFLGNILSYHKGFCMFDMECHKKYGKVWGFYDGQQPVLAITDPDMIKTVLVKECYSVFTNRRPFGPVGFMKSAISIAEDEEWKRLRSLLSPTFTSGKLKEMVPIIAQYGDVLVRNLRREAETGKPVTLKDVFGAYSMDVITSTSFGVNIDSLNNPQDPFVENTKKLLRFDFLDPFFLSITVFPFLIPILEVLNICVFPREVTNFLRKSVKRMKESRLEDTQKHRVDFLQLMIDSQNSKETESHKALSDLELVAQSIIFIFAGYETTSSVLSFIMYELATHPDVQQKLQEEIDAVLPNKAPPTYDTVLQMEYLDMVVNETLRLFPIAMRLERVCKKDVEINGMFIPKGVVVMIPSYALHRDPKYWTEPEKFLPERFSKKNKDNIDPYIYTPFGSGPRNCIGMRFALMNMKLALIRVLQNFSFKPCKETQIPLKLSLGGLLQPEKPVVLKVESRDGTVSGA
Experiment: Cytochrome P450 Family 3 Subfamily A Member 4 (CYP3A4) small molecule antagonists: luciferase reporter qHTS assay (AID 1671201); also: nearly all actives have a fitted effect of over 50% in size
Details: P450-Glo CYP3A4 enzyme, luciferin luminescence, 1 h; series mostly up to 115 µM
Inconclusive results are not listed. Active and inactive are the calls of the source. Calls follow the shape of the dose curve; as a rule, active = well fitted inhibition curve with a large enough effect in the repeat runs; inconclusive = weak or mixed curves; inactive = no such curve, though single readings can be large or run the other way.
Allowed answers: true for active, false for inactive

Consider the following illustrative entries.
molecule	class.label
CCCN1C=CN(C)C1	false
Cc1ccc(S(=O)(=O)NCl)cc1	false

Name the outcome recorded for `O=C(O)c1ccc(O)cc1` in the assay.
false

For this molecule, state the assay outcome: `[O-]/[N+](=N\O)c1ccccc1`
false

Name the outcome recorded for `O=C(O)c1cc(=O)[nH]c(=O)[nH]1` in the assay.
false

Outcome? FC(F)(F)C(Cl)Br (stereo not given)
false

----------
Assay: qHTS assay to identify small molecule antagonists of the androgen receptor (AR) signaling pathway using the MDA cell line - cell viability counter screen (AID 743041; also: nearly all actives have a fitted effect of over 45% in size)
Conditions: MDA-kb2 viability, CellTiter-Fluor, 16 h, cells co-treated with R1881 androgen agonist; series mostly up to 70.3 µM
Records with an inconclusive call do not appear. Calls of active or inactive are those of the source. Calls follow the shape of the dose curve; as a rule, active = well fitted cell-killing curve with a large enough effect in the repeat runs; inconclusive = weak or mixed curves, or effect the other way; inactive = flat fitted curve, though single readings scatter.
value.type: outcome

Some solved entries appear below for comparison.
> print(dat)
                                   compound  assay.result
1  C[C@]12CC[C@@H]3c4ccc(O)cc4CC[C@H]3[C@@H]1CC[C@@H]2O      inactive
2      c1ccc2c(c1)ccc1cc3c(ccc4ccccc43)cc12      inactive
3        Cc1ccc(/C(=C\CN2CCCC2)c2ccccn2)cc1      inactive
4  CCC(Cc1c(I)cc(I)c(N)c1I)C(=O)O (stereo not given)      inactive

Now for a further compound.
Reported outcome for `OC[C@@H](O)[C@@H](O[C@@H]1O[C@H](CO)[C@H](O)[C@H](O)[C@H]1O)[C@H](O)[C@@H](O)CO` : what is it?
inactive

----------
Test: qHTS assay to identify small molecule antagonists of the retinoid-related orphan receptor gamma (ROR-gamma) signaling pathway - cell viability counter screen (AID 1159520); also: nearly all actives have a fitted effect of over 50% in size
Conditions: Tet-on RORgamma CHO cells viability, ATP luminescence, 16 h; series mostly up to 92.4 µM
Inconclusive results are not listed. The source made the active and inactive calls. The call rests on the fitted dose curve; in most records, active means well fitted cell-killing curve with a large enough effect in the repeat runs; inconclusive means weak or mixed curves, or effect the other way; inactive means no such curve, though single readings can be large or run the other way.
value.type: outcome

> print(dat)
                                   molecule  assay.result
1                           Cc1ccc(C)c(O)c1      inactive
2                 C/C=C/C(=O)N(CC)c1ccccc1C      inactive
3  CC1(C)O[C@@H]2C[C@H]3[C@@H]4C[C@H](F)C5=CC(=O)C=C[C@]5(C)[C@@]4(F)[C@@H](O)C[C@]3(C)[C@]2(C(=O)CO)O1      inactive
4  CC1(C)C(C=C(Cl)Cl)C1C(=O)OCc1cccc(Oc2ccccc2)c1 (configuration not stated)      inactive
5                    Cc1ccc(C(C)(C)C)c(O)c1      inactive
6  COC(=O)C(C)Oc1ccc(Oc2ncc(C(F)(F)F)cc2Cl)cc1 (configuration not stated)      inactive
7                             CCCCCCCCCCCCO      inactive
8  C=C[C@@]1(C)CC(=O)[C@]2(O)[C@@]3(C)[C@@H](O)CCC(C)(C)[C@@H]3[C@H](O)[C@H](OC(C)=O)[C@@]2(C)O1      inactive

Which outcome reading was recorded for the molecule `O=C(O)CCCC(=O)O` ?
inactive

What measured outcome goes with `Nc1cc([N+](=O)[O-])ccc1C(=O)O` ?
inactive

So what's the measured outcome for this one? `CN(C)/N=N/c1nc[nH]c1C(N)=O`
inactive

What outcome value was documented for this molecule, `COCCOCCOCCO` ?
inactive

----------
Experiment: qHTS RealTime-Glo MT Cell Viability Assay in HepG2 cells - 40 hour (AID 1224870); also: nearly all actives have a fitted effect of over 50% in size
Conditions: RealTime-Glo luminescence; series mostly up to 76.8 µM
Results filed as inconclusive are left out. Activity calls are given as the source filed them. The call rests on the fitted dose curve; in most records, active means well fitted cell-killing curve with a large enough effect in the repeat runs; inconclusive means weak or mixed curves, or effect the other way; inactive means flat fitted curve, though single readings scatter.
value.type: outcome

Take a look at these entries with their results.
> print(dat)
                                   molecule  value.type  assay.result
1                    Cc1ccc(C(C)(C)C)c(O)c1     outcome      inactive
2                    Cc1ccc2c(c1)C(=O)OC2=O     outcome      inactive
3  O=C(O)COCCN1CCN(C(c2ccccc2)c2ccc(Cl)cc2)CC1 (stereo unspecified)     outcome      inactive
4                    Cc1ccc(S(=O)(=O)O)cc1C     outcome      inactive
5  CC(=O)O[C@]1(C(C)=O)CC[C@H]2[C@@H]3C=C(C)C4=CC(=O)CC[C@]4(C)[C@H]3CC[C@@]21C     outcome      inactive
6  C=CC(C)(O)CCC=C(C)C (stereo unspecified)     outcome      inactive
7          CCCCCCC(C)O (stereo unspecified)     outcome      inactive
8                CN(C)/N=N/c1nc[nH]c1C(N)=O     outcome      inactive

outcome for `Nc1ccc2c(c1)C(=O)c1ccccc1C2=O` ?
inactive

Which outcome value belongs to `C=C1C[C@H]2[C@@H]3C=C(C)C4=CC(=O)CC[C@]4(C)[C@H]3CC[C@]2(C)[C@@]1(OC(C)=O)C(C)=O` ?
inactive

State the recorded outcome for this entry: `CC(=O)O[C@]1(C(C)=O)CC[C@H]2[C@@H]3C=C(Cl)C4=CC(=O)CC[C@]4(C)[C@H]3CC[C@@]21C`
inactive

----------
Test: qHTS assay to identify small molecule antagonists of the retinoid acid receptor (RAR) signaling pathway - cell viability counter screen (AID 1159551); also: nearly all actives have a fitted effect of over 35% in size
Conditions: C3RL4 cells viability, ATP luminescence (CellTiter-Glo), 6 h; series mostly up to 92.4 µM
Results filed as inconclusive are left out. Calls of active or inactive are those of the source. Calls come from the whole dose curve; as a rule, active = well fitted cell-killing curve with a large enough effect in the repeat runs; inconclusive = weak or mixed curves, or effect the other way; inactive = flat fitted curve, though single readings scatter.
Give your call using only these classes: YES (active), NO (inactive)

Consider the following illustrative entries.
> print(dat)
                                   molecule  class.label
1  CCCCCCCCCCC(CO)CCCCCCCC (configuration not stated)           NO
2  O=C1OC2(c3ccccc31)c1cc(I)c(O)c(I)c1Oc1c2cc(I)c(O)c1I          YES
3        Cc1ccc(/C(=C\CN2CCCC2)c2ccccn2)cc1           NO
4                C=C[Si](OCCOC)(OCCOC)OCCOC           NO
5                   [O-]/[N+](=N\O)c1ccccc1           NO

Lab log entry: `O=C(O)c1cc(=O)[nH]c(=O)[nH]1` — outcome as called in the assay?
NO

Check the results log: what was the call for `Brc1nc2ccccc2s1` ?
NO
